Reported IC50 values for a set of compounds
# target.or.system: Histone deacetylase 1 (Homo sapiens, UniProt Q13547)
# Sequence (Q13547 whole entry): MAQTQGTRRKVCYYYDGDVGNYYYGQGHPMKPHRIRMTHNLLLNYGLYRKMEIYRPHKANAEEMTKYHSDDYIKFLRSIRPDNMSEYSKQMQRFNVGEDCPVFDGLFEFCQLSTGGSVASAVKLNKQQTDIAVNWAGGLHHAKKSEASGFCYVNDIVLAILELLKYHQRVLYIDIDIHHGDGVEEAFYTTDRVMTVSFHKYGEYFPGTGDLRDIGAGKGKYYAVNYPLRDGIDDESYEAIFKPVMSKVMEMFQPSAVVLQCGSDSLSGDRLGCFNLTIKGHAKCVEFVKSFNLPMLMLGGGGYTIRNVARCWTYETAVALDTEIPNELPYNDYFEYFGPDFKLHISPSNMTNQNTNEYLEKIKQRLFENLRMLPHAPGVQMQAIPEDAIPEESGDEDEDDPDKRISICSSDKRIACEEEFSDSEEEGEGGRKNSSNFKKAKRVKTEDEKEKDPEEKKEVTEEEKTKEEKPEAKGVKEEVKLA
# protocol.details: Inhibition of C-terminal FLAG/His-tagged full length recombinant human HDAC1 expressed in baculovirus infected Sf9 insect cells using KI 177 as substrate preincubated for 5 mins followed by substrate addition measured after 30 mins by fluorescence assay

cpd_smiles=COc1cc2ccn(CCOc3cccc(NC(=O)CCCCCCC(=O)NO)c3)c2c(OC)c1OC test_value="11.1 nM"

Now turn to the next compound.
*Q* # IC50 lookup, item COc1cc2ccn(CCCCOc3cccc(NC(=O)CCCCCCC(=O)NO)c3)c2c(OC)c1OC
*A* 29.3 nM
